test system: CCRIS mutagenicity, Ames/micronucleus/aberration tests; assay: CCRIS mutagenicity studies; conditions: Test System: AMES SALMONELLA TYPHIMURIUM; Strain/Indicator: TA1537; Metabolic Activation: NONE; Method: STANDARD PLATE
Calls of active or inactive are those of the source. The rule behind the calls is not given here.
Field 'call' accepts YES = active, NO = inactive

// query Hi, sorry to bother you, what did the test record for C=C[Si](C)(Cl)Cl ?
// result NO

// query Hi, sorry to bother you, what did the test record for C=CC(=O)OCC(C)(C)C ?
// result NO

// query Hi, sorry to bother you, what did the test record for CN1CC[C@@]2(C)c3cc(O)ccc3N(C)[C@@H]12 ?
// result NO

// query Hi, sorry to bother you, what did the test record for COCC1O[C@@H](O[C@@H]2C(COC)OC(OC)C(OC)C2OC)C(OC)C(OC)C1OC (some centres undefined) ?
// result NO

// query Hi, sorry to bother you, what did the test record for N#CC(C#N)=C(C#N)C#N ?
// result NO

// query Hi, sorry to bother you, what did the test record for [Cd] ?
// result NO

// query Hi, sorry to bother you, what did the test record for C[Si](C)(C)O[Si](C)(C)C ?
// result NO

// query Hi, sorry to bother you, what did the test record for CC(CNC(=O)c1cccnc1)NC(=O)c1cccnc1 (centres undefined) ?
// result NO

// query Hi, sorry to bother you, what did the test record for Cc1cc2c(c(O)c1O)C(=O)c1c(O)cc(O)cc1C2=O ?
// result YES

Hey, just so you know, these numbers are from PubChem BioAssay AID1259407.
